# tested on: MKNK2 (human)
# assay: radiometric filter-binding kinase assay
# stated conditions: compound 100.0 µM; ATP 50 µM
measured attribute: inhibition (%)
Response body: numeric value in %, unit text excluded.

Recorded results for 2 compounds are shown here.
structure=Nc1nc2cnc(-c3ccccc3)cn2n1 result=66
structure=CC(C)(C)Nc1c(C2CC2)nc2[nH]cnn12 result=9

Bench note: what inhibition did CC(C)(C)Nc1c(COCc2ccccc2)nc2[nH]cnn12 show?
0

====

# tested on: PRKCG (human) (UniProt P05129)
# assay: radiometric filter-binding kinase assay
# stated conditions: compound 100.0 µM; ATP 20 µM
Below, each of the compounds is paired with its reported inhibition value.
// return numeric value only (unit: %, not printed)

Past entries and their recorded results:
compound=Cc1cccc(C)c1-c1cn2nc(N)nc2cn1 tested_on="PRKCG (human) (UniProt P05129)" measured_attribute=inhibition units=% result=6
compound=CC(=O)Nc1nc2cnc(-c3ccccc3)cn2n1 tested_on="PRKCG (human) (UniProt P05129)" measured_attribute=inhibition units=% result=2
compound=O=c1c(NC(=S)NCc2ccccc2)cnc2[nH]ccn12 tested_on="PRKCG (human) (UniProt P05129)" measured_attribute=inhibition units=% result=0
compound=O=C(Nc1cnc2[nH]ccn2c1=O)c1ccccc1 tested_on="PRKCG (human) (UniProt P05129)" measured_attribute=inhibition units=% result=0
compound=CC(C)(C)Nc1c(C2CC2)nc2[nH]cnn12 tested_on="PRKCG (human) (UniProt P05129)" measured_attribute=inhibition units=% result=9

Now look at this one.
# value lookup — system PRKCG (human) (UniProt P05129), readout inhibition, item O=C(c1cccc(-c2cc3c(=O)[nH]cnc3s2)c1)N1CCOCC1
16

The measurements presented in this section are drawn from the kinase profiling compilation of Christmann-Franck et al. (2016).
